Each recorded value in this set is attributed to patent US20220249441A1.

Quick reference for MIC of IPM in the presence of compound among some compounds
# System: P. aeruginosa
# experiment_description: Checkerboard assay (antibiotic + adjuvant combination MIC)
# Assay type: cell-based, Pseudomonas aeruginosa
# condition_parameters: PA 86052; compound at 8 μM
Record the value in µg/mL, omitting the unit from your answer.

Worked examples follow.
Cl.Cl.Cl.Cl.Cl.Cl.NC[C@H]1O[C@H](O[C@H]2[C@H](OCCCCCCCCCCCCN3CCN(c4cc5c(cc4F)c(=O)c(C(=O)O)cn5C4CC4)CC3)[C@@H](O[C@H]3O[C@H](CO)[C@@H](O)[C@H](N)[C@H]3O)[C@H](N)C[C@@H]2N)[C@H](N)C[C@@H]1O
8
Cl.Cl.Cl.Cl.Cl.NC[C@H]1O[C@H](O[C@H]2[C@H](OCCCCCCCCCCCCN3CCN(c4cc5c(cc4F)c(=O)c(C(=O)O)cn5C4CC4)CC3)[C@@H](O)[C@H](N)C[C@@H]2N)[C@H](N)C[C@@H]1O
4
N=C(N)NC[C@H]1O[C@H](O[C@H]2[C@H](OCCCCCCCCCCCCN3CCN(c4cc5c(cc4F)c(=O)c(C(=O)O)cn5C4CC4)CC3)[C@@H](O[C@H]3O[C@H](CO)[C@@H](O)[C@H](NC(=N)N)[C@H]3O)[C@H](NC(=N)N)C[C@@H]2NC(=N)N)[C@H](NC(=N)N)C[C@@H]1O
16

Next:
Exercise: What is its MIC of IPM in the presence of compound for P. aeruginosa? Entry: `NC[C@H]1O[C@H](O[C@H]2[C@H](OCCCCc3cn(CCCCO[C@@H]4[C@@H](O)[C@H](N)C[C@H](N)[C@H]4O[C@H]4O[C@H](CN)[C@@H](O)C[C@H]4N)nn3)[C@@H](O)[C@H](N)C[C@@H]2N)[C@H](N)C[C@@H]1O`
Key: 16
